- Test system: NCI-H322M lung
- Measurement protocol: NCI-60 one-dose screen, 48 h
- Experimental context: 10 µM
- Experimental: Growth inhibition of the NCI-H322M human Non-Small Cell Lung tumor cell line is measured as a screen for anti-cancer activity. Cells are grown in 96 well plates and exposed to the test compound for 48 hours. Compounds are tested at a single concentration, which is 10^-5 M for most compounds. The reported endpoint is percent growth (GI% or GIPRCNT), where numbers from 0 - 100% represent growth inhibition, and numbers from -100% - 0 represent cell death. […]
About 83,000 compounds went through this panel and 20% of them were active in at least one assay; those are over-represented in the sample as a whole. The source made the active and inactive calls. How the source made its calls: active means growth percent below 10; inactive means the rest.
Outcomes: t = active, f = inactive

O=C1CC[C@@H]2CCCC[C@@H]2C1 | f
CCn1cc(C(=O)O)c(=O)c2cnc(N3CCCC3)nc21 | f
O=C(Nc1ccncc1)C(=O)c1cn(S(=O)(=O)c2cccc(Cl)c2)c2ccccc12 | f
COc1ccc(-n2c(SCc3cc(OC)c(OC)c(OC)c3)nc3ccc(C)cc3c2=O)cc1 | f
COc1cc(-c2nc(-c3nnc(-c4ccccc4Cl)o3)c3ccccn23)cc(OC)c1OC | f
COc1ccccc1CNCCN1C(=O)c2ccc3c4c(ccc(c24)C1=O)C(=O)N(CCNCc1ccccc1OC)C3=O | t
COc1ccc(Nc2nc3ccc(NC(=O)NC4CCCCC4)cc3[nH]c2=O)cc1 | f
COc1cc(C(=O)N2CCN(c3ccccc3OC)CC2)c(N)cc1OCCCN1CCN(c2ccccc2OC)CC1 | f
CCCCC(CCCCCC(CCCC)NCc1ccc2c(c1)OCO2)NCc1ccc2c(c1)OCO2 (stereo not given) | t
CN(C)CCS(=O)(=O)CCN(C)C | f

* * *

Catalogue of growth values
- System: KM12 colon
- Measurement protocol: NCI-60 one-dose screen, 48 h (100 = growth as untreated, 0 = no growth, -100 = all killed)
- Experimental context: 10 µM
The panel holds about 83,000 compounds, 20% with a hit somewhere; the sample as a whole holds those more often. Calls of active or inactive are those of the source. The calls were made as follows: active = growth percent below 10; inactive = the rest.
Assay readout: growth

COc1ccc(OC)c2c1C(=O)CC2C (centres undefined) | 103% (inactive)
COC(=O)[C@@H]1[C@H](O)[C@H](C)[C@H](O)[C@@](C)(O)/C=C\C=C(C)C(=O)Nc2c(C)c(OC(C)=O)c3c(c2O)C(=O)C(C)=C2OCOC(=C23)C(C)=C[C@@](C)(O)[C@H](O)[C@@H](C)[C@H]1OC(C)=O | 112% (inactive)
CN1c2ccccc2[C@]2(Cc3ccccc3)Cc3ccccc3N[C@H]12 | 104% (inactive)
Cc1ccc(N=Nc2c(N)nc(N)[nH]c2=O)cc1C | 111% (inactive)
CSCCCNC(=O)c1ccc2c(c1)/C(=C/c1[nH]c(C)cc1C)C(=O)N2 | 17.1% (inactive)
CN(C)CCN1C(=O)c2cccc3c(-c4ccc5ncn(C6CCCCC6)c5c4)ccc(c23)C1=O | 24.8% (inactive)
O=C1NC(=O)N(Cc2ccccc2)CC1Br (centres undefined) | 106% (inactive)
N#Cc1cc(-c2cc3ccccc3o2)oc1N | 0.443% (active)
CCOC1(OCC)OC(c2ccccc2)=C(C#N)C(/C=C\c2ccccc2)C1(OCC)OCC (centres undefined) | 84.3% (inactive)

* * *

- Tested on: HOP-62 NSCLC
- Measurement protocol: NCI-60 one-dose screen, 48 h
- Experimental context: 10 µM
This is part of a sample that, as a whole, favours compounds with a hit. Of some 83,000 tested, about 20% had one in any assay. Calls of active or inactive are those of the source. The calls were made as follows: active = growth percent below 10; inactive = the rest.
Outcomes: active, inactive

CCOC(=O)N1C/C(=C/c2ccc(OC)cc2)C(=O)/C(=C/c2ccc(OC)cc2)C1 | inactive
O=C(CCCCCCC(=O)Nc1cccnc1)NO | inactive
C/C(=N\Nc1nc2ccccc2s1)c1ccncn1 | inactive
COc1cc(C)ccc1C(=O)c1ccc(C)cc1OC | inactive
COc1ccc(-c2nnc(-c3c(-c4ccccc4)nc4ncccn34)o2)cc1OC | inactive
Nc1ncn(C2OC(CO)C(O)C2O)c(=O)n1 (stereo unspecified) | active
Clc1ccc(-c2cn(-c3ccccc3)c(-c3ccccc3)n2)c(Cl)c1 | inactive
COc1ccc2c(c1)sc1nc(-c3ccccc3)c(-c3cccnc3)n12 | inactive
NC(=O)SCC(=O)Nc1ccc(S(N)(=O)=O)cc1 | inactive
CC(C)(C)NC/C(=C\c1ccccc1)C(=O)c1ccccc1 | inactive
COc1ccc(-c2cc(/C=C3\C(=O)Nc4ccc(Cl)cc43)[nH]n2)cc1OC | inactive

* * *

Catalogue of growth values
- System: DU-145 prostate
- Measurement protocol: NCI-60 one-dose screen, 48 h (100 = growth as untreated, 0 = no growth, -100 = all killed)
- Experimental context: 10 µM
About 83,000 compounds went through this panel and 20% of them were active in at least one assay; those are over-represented in the sample as a whole.
Assay readout: growth (%)

CN(C)CCCn1c(=O)c2ccccc2c2cnc3[nH]ccc3c21 | -0.745
CN1CCC(CNc2cc(C3(C(=O)Nc4cc(C(=O)Nc5ccc(Cl)c(C(F)(F)F)c5)ccc4F)CC3)ncn2)CC1 | 40.5
CCCCCCN1CCN(Cc2ccc(N(CC)CC)cc2)C(=O)C1=O | -7.77
COC(=O)c1c(-c2ccccc2)csc1NC(=O)c1c(-c2ccccc2)noc1C | 39.7
COc1ccc(OC)c(NC(=O)c2sc3nc4c(cc3c2N)C(=O)CCC4)c1 | 113
Cc1[nH]nc2c1C(c1cnn(C)c1)C(C#N)=C(N)O2 (stereo unspecified) | 110
CN(C)c1ccc(/C=C/C=N/NC(=O)c2cc(O)c(O)c(O)c2)cc1 | 109
Cc1cc2c(C)c3cc(C)c(N)cc3nc2cc1N | 10.6
COc1ccc(NC(=O)CSc2nc3ccccc3c(=O)n2CCc2ccccc2)cc1 | 101
O=C1OCC2=C1C(c1cccc(Cl)c1)c1cc3c(cc1N2CCO)OCCO3 (stereo unspecified) | -35.6
Nc1ccc2cc(S(=O)(=O)O)cc(O)c2c1N=Nc1ccc(F)cc1 | 118
Cc1cc(Nc2ccc(Cl)cc2)nc(NCCCNc2ccnc3cc(Cl)ccc23)n1 | 1.28
COc1cc(C2CC(c3ccc(Nc4ccnc5cc(Cl)ccc45)cc3)=NN2c2ccc(Cl)cc2)cc(OC)c1OC (stereo unspecified) | 64
C[C@]12CC[C@@H]3c4ccc(O)cc4C[C@@H](O)[C@H]3[C@@H]1CC[C@@H]2O | 110
COc1ccc2c(c1)C(=O)c1c-2c(OCCN(C)C)nc2ccccc12 | 27
CSc1cc(SC)ncn1 | 115
CCCCCCCCCCCCC1C/C=C\CCCC(=O)O1 (stereo unspecified) | 130
C#Cc1ccc(-n2c(/C=C/c3cc(OC)cc(OC)c3)nc3ncccc3c2=O)cc1 | 93.2
COc1ccc(-c2nnc(-c3c(-c4ccccc4)nc4ncccn34)o2)cc1OC | 109
COc1cc(-c2nc(-c3nnc(-c4ccccc4Cl)o3)c3ccccn23)cc(OC)c1OC | 98.5
CN(C)CCN1C(=O)c2cccc3c(-c4ccc5ncn(C6CCCCC6)c5c4)ccc(c23)C1=O | 27

* * *

- Tested on: SNB-19 CNS
- Measurement protocol: NCI-60 one-dose screen, 48 h
- Experimental context: 10 µM
Compounds without any hit were thinned out: in the full panel of roughly 83,000, 20% have a hit. Active and inactive are the calls of the source. How the source made its calls: active means growth percent below 10; inactive means the rest.
Outcomes: 1.0 = active, 0.0 = inactive

O=C(N/N=C/c1ccccc1)C(Oc1ccccc1)c1ccccc1 (stereo unspecified) | 0.0
COc1ccc(-c2cc(/C=C3\C(=O)Nc4ccc(Cl)cc43)[nH]n2)cc1OC | 0.0
COc1ccc(C(=O)/C=C/c2cc(-c3cc(OC)c(OC)c(OC)c3)n[nH]2)cc1 | 0.0
O=C1C(=O)c2ccccc2C(O)=C1CCCc1ccc(C2CCCCCC2)cc1 | 0.0
CCCCCCCCCCCCCC[n+]1ccc(C(N)=O)cc1 | 1.0
N#CCCN1C/C(=C/c2ccc(Cl)cc2)C(=O)/C(=C/c2ccc(Cl)cc2)C1 | 1.0
Nc1nc(-c2ccccc2Cl)cc(-c2ccc(Cl)cc2Cl)n1 | 0.0
ClCC#CCSc1ncnc2c1ncn2CC#CCCl | 0.0
O=C(Nc1cccc(-n2cc(-c3ccncc3)c(-c3cc(O)cc(Cl)c3)n2)c1)c1cc(C(F)(F)F)cc(C(F)(F)F)c1 | 0.0
COc1ccc(Nc2cc(C)nc(NCCCNc3ccnc4cc(Cl)ccc34)n2)cc1 | 1.0
CCOC(=O)C1CCc2c(ccc3ccccc23)N1CCC#N (stereo unspecified) | 0.0

* * *

- Tested on: MDA-MB-435 melanoma
- Measurement protocol: NCI-60 one-dose screen, 48 h (100 = growth as untreated, 0 = no growth, -100 = all killed)
- Experimental context: 10 µM
Compounds without any hit were thinned out: in the full panel of roughly 83,000, 20% have a hit.
Outcome: Yes for growth of at least 60%; No for anything lower.

CCN(CC)CCOc1nc2ccc(OC)cc2c2c1-c1ccc(OC)cc1C2=O | No
O=C(Nc1cccc(Cl)c1)Nc1nccs1 | Yes
Clc1ccc(Nc2ccnc(NCCCNc3ccnc4cc(Cl)ccc34)n2)cc1 | No
CC(=O)c1cc(Br)ccc1O | Yes
N=C1c2nc3n(c2C(=O)c2nc4n(c21)CCCC4)CCCC3 | No
CCCCOC(=O)Oc1ccc(C(=O)Oc2ccc(OCC)cc2)cc1 | Yes
